Molecular target: CREB1 (Homo sapiens)
Construct: made in house
Sequence (P16220 269-327 limits assumed): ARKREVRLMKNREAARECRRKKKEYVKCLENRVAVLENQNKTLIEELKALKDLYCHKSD
Assay: Direct-binding FRET assay
Conditions: 23°C; C-terminal rhodamine design; repeat 1
pKd: −log10 of the molar value. Where no end group is shown, it is not given here.
Quantity: pKd

QUERY: Param item = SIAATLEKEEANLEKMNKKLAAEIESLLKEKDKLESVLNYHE [JUN-d1] ; retrieve measured pKd.
RESULT: < 6.00

----------
Target: ATF3 (Homo sapiens, UniProt P18847)
Construct: made in house
Sequence (P18847 86-149 limits assumed): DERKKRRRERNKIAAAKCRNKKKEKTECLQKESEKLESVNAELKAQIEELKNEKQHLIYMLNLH
Assay: Direct-binding FRET assay
Conditions: 23°C; C-terminal rhodamine design; mean or single; read-out: Kd
Where no end group is shown, it is not given here.
Quantity: Kd

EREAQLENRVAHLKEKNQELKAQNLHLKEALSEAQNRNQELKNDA [XBP1-d1]: > 1000 nM

Next up:
QUERY: Param item = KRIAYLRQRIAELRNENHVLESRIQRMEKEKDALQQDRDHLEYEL [ATF5-d1] ; retrieve measured Kd.
RESULT: > 5000 nM
